Hello, the source for this data is the OPERA property sets (Mansouri et al. 2018), in case you need it.

# thresholds on melting point define classes: group A = under 7 °C, group B = from 7 °C up to 100 °C, group C = 100 °C and over

compound="CCCC(C)O (stereo not drawn)" answer_label="group A"
compound=O=C1c2ccccc2-c2cccc3cccc1c23 answer_label="group C"
compound=O=C(O)c1ccc(I)cc1 answer_label="group C"
compound="CCC(O)(COC(N)=O)c1ccccc1 (stereo not drawn)" answer_label="group B"
compound=CCCCCOCCCCC answer_label="group A"
compound=CCCc1cc(=O)[nH]c(=S)[nH]1 answer_label="group C"
compound=C=COC(=O)CCC answer_label="group C"
compound=CCCCCCC(=O)Cl answer_label="group A"
compound=S=C=Nc1ccc(Cl)cc1 answer_label="group B"
compound=ClC(Cl)(Cl)Cl answer_label="group A"
compound=N[C@@H](CSCC(=O)O)C(=O)O answer_label="group C"
compound=c1ccc(N2CCCCC2)cc1 answer_label="group A"
compound=C/C=C/CC(C)C answer_label="group A"
compound="CC(C)C(C)CCC(C)C1CCC2=C3CCC4CC(O)CCC4(C)C3CCC21C (stereo not drawn)" answer_label="group C"
compound=CCCCCCC(=O)CCCCC answer_label="group B"
compound=CCCCCCC=CCC(=O)O answer_label="group B"
compound=O=C1CCCCCCCCCCC(=O)OCCO1 answer_label="group B"
compound=O=[N+]([O-])c1ccc(Oc2ccc(C(F)(F)F)cc2[N+](=O)[O-])cc1 answer_label="group B"
compound=N#CC(Cl)(Cl)Cl answer_label="group A"
